Record form. Attribute: fold change (FC). Fill in for each entry.
- test_target: UniProt:P08183
- Sequence (P08183 whole entry): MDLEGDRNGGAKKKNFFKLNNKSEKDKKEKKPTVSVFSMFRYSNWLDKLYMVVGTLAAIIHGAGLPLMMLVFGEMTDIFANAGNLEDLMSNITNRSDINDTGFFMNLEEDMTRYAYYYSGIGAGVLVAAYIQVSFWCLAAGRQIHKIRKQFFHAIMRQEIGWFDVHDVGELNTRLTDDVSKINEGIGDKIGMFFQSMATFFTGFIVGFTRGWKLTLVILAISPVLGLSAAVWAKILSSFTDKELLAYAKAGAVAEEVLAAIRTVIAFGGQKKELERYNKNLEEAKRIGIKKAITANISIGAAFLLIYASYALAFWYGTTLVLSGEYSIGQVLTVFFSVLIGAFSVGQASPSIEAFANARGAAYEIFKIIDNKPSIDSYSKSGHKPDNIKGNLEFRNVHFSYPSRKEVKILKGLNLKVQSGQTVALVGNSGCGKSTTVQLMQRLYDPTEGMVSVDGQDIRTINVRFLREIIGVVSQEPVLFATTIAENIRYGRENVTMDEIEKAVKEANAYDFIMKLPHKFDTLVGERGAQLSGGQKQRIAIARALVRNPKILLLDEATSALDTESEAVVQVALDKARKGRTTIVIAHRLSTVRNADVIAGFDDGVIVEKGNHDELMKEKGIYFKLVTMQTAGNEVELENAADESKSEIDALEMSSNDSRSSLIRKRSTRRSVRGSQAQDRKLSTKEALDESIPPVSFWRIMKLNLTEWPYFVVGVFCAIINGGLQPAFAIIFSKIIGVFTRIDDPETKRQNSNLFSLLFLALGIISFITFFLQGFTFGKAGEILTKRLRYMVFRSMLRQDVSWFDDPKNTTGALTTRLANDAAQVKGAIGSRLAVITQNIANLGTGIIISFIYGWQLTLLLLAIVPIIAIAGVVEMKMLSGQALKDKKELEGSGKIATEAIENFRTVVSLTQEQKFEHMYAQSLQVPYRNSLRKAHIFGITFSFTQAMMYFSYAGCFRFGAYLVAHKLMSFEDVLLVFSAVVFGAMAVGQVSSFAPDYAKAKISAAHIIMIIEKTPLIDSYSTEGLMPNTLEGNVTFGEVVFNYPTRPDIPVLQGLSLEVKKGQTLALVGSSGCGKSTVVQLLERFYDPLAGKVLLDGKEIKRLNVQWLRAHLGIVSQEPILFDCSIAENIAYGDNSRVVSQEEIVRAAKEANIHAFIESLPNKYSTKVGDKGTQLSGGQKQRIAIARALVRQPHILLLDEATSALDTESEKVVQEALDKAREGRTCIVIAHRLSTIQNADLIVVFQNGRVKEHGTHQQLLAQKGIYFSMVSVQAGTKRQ
- assay_info: Inhibition of human MDR1 expressed in mouse NIH/3T3 cells assessed as reduction in daunomycin IC50 at 1 uM by MTT assay
- Type: cell-based
- measurement_context: nih3t3, 1 µM
Keep the answer to the number alone.

QUERY: Fill in: fold change (FC) of "CC(=O)O[C@H]1CC[C@](C)(OC(=O)CNCC(C)C)[C@]23OC(C)(C)[C@H]([C@H](OC(=O)/C=C/c4ccccc4)[C@H](OC(=O)c4ccccc4)[C@]12C)[C@H]3OC(C)=O" is ___
RESULT: 10

QUERY: Please report the recorded fold change (FC) for "CC(=O)O[C@H]1CC[C@](C)(OC(=O)CN2CCOCC2)[C@]23OC(C)(C)[C@H]([C@H](OC(=O)/C=C/c4ccccc4)[C@H](OC(=O)c4ccccc4)[C@]12C)[C@H]3OC(C)=O" .
RESULT: 5.7

QUERY: For the molecule "CC(=O)O[C@H]1CC[C@]2(C)O[C@@H]3[C@H]4[C@H](OC(=O)/C=C/c5ccccc5)[C@H](OC(=O)c5ccccc5)[C@@]1(C)[C@]32OC4(C)C" , what fold change (FC) is on record?
RESULT: 5.9
